experiment: in vivo; details: female, Balb/c, mouse, iv, 2 mg/kg
measurement_name: AUC(0-t) (ng·h/mL)
Unit ng·h/mL implied. Number only.

query: Annotate the compound C#C[C@]1(O)CC[C@H]2[C@@H]3CCc4cc(OC)c(N5CCN(C(=O)[C@@H]6CCCN6C(=O)c6ccc7ccccc7n6)CC5)cc4[C@H]3CC[C@@]21C with its measured AUC(0-t).
result: 595

---

experiment: in vivo; settings: female, Balb/c, mouse, sc, 60 mg/kg
measurement_name: concentration at 3 h (ng/mL)
Unit ng/mL implied. Number only.

query: Annotate the compound C#C[C@]1(O)CC[C@H]2[C@@H]3CCc4cc(OC)c(N5CCN(C(=O)[C@@H]6CCCN6C(=O)c6ccc7ccccc7n6)CC5)cc4[C@H]3CC[C@@]21C with its measured concentration at 3 h.
result: 600

---

assay: in vivo; conditions: female, Balb/c, mouse, ip, 20 mg/kg
measurement_name: AUC(0-t) (ng·h/mL)
Unit ng·h/mL implied. Number only.

query: Annotate the compound C#C[C@]1(O)CC[C@H]2[C@@H]3CCc4cc(OC)c(N5CCN(C(=O)[C@@H]6CCCN6C(=O)c6ccc7ccccc7n6)CC5)cc4[C@H]3CC[C@@]21C with its measured AUC(0-t).
result: 11400

---

Let's look at some molecules and their measured antiproliferative activity relative to RM-133, PANC-1.
System: Human pancreas cancer cells (PANC-1)
Test: Cell proliferation assay (MTS), PANC-1
Type: cell-based
Settings: fold of RM-133 activity (>1 = more active)
Experimental: The different aminosteroids were dissolved in methanol (50 mM).
Unit fold implied. Number only.

- molecule: "C#C[C@@]1(O)CC[C@H]2[C@@H]3CC[C@H]4CC(=O)C(N5CCN(C(=O)[C@@H]6CCCN6C(=O)c6ccc7ccccc7n6)CC5)=C[C@]4(C)[C@H]3CC[C@@]21C [1 (enone)]"
  endpoint_value: 11.3

query: Annotate the molecule C#C[C@@]1(O)CC[C@H]2[C@@H]3CC[C@H]4C[C@H](OC(=O)N(C)C)[C@@H](N5CCN(C(=O)[C@@H]6CCCN6C(=O)c6ccc7ccccc7n6)CC5)C[C@]4(C)[C@H]3CC[C@@]21C [3 (3-carbamate)] with its measured antiproliferative activity relative to RM-133, PANC-1.
result: 0.7

---

test system: renal proximal tubule epithelial cells (RPTEC); test: Toxicity on normal cells (MTS), RPTEC; format: cell-based, human; details: Homo sapiens, RPTEC, read-out: IC50 (μM) Normal Cells Kidney
measurement_name: IC50

query: Annotate the compound C#C[C@@]1(O)CC[C@H]2[C@@H]3CCc4cc(OC(=O)N(C)C)c(N5CCN(C(=O)[C@@H]6CCCN6C(=O)c6ccc7ccccc7n6)CC5)cc4[C@H]3CC[C@@]21C [Compound 1] with its measured IC50.
result: ≥ 50 µM

---

test: in vivo; conditions: female, Balb/c, mouse, ip, 20 mg/kg
measurement_name: concentration at 3 h (ng/mL)
Unit ng/mL implied. Number only.

query: Annotate the compound C#C[C@]1(O)CC[C@H]2[C@@H]3CCc4cc(OC)c(N5CCN(C(=O)[C@@H]6CCCN6C(=O)c6ccc7ccccc7n6)CC5)cc4[C@H]3CC[C@@]21C with its measured concentration at 3 h.
result: 5300

---

test system: Human pancreas cancer cells (PANC-1); test: Cell proliferation assay (MTS), PANC-1; type: cell-based; settings: fold of RM-133 activity (>1 = more active)
measurement_name: antiproliferative activity relative to RM-133, PANC-1 (fold)
Unit fold implied. Number only.

- mol: "C#C[C@@]1(O)CC[C@H]2[C@@H]3CC[C@H]4C[C@H](OC(C)=O)[C@H](N5CCN(C(=O)[C@@H]6CCCN6C(=O)c6ccc7ccccc7n6)CC5)C[C@]4(C)[C@H]3CC[C@@]21C"
  endpoint_value: 1.1

Alright, here's another molecule for you.
query: Annotate the molecule C#C[C@]1(OC(C)=O)CC[C@H]2[C@@H]3CC[C@H]4C[C@H](OC(C)=O)[C@@H](N5CCN(C(=O)[C@@H]6CCCN6C(=O)c6ccc7ccccc7n6)CC5)C[C@]4(C)[C@H]3CC[C@@]21C with its measured antiproliferative activity relative to RM-133, PANC-1.
result: 0.3
